subjectOfTest: HIF-2α HIS TAG-PASB Domain (Homo sapiens, UniProt Q99814)
Construct: 100 nM HIF-2α HIS TAG-PASB Domain
Sequence (Q99814 240-350 limits assumed): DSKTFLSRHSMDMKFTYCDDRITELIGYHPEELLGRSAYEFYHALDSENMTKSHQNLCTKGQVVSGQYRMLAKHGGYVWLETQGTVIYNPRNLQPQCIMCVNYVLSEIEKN
experimentalDetails: HIF-2α Scintillation Proximity Assay (SPA)
Format: binding
conditionsUsed: 150 nM Compound 211 probe, 100 nM HIF-2α HIS TAG-PASB Domain; read-out: SPA IC50
Mark label 1 for IC50 under 5 µM, label 0 if at or over.

{"compound": "N#Cc1cc(F)cc(Oc2ccc3c(c2C#CCF)C(O)C(F)(F)S3(=O)=O)c1 (centres unmarked) [Compound 174]", "classLabel": "label 0"}
{"compound": "N#Cc1cc(F)cc(Oc2ccc(S(=N)(=O)CF)c3c2CC(F)(F)[C@H]3O)c1 (single isomer, unassigned) [Compound 38]", "classLabel": "label 1"}
{"compound": "CS(=O)(=O)c1ccc(Oc2cc(F)cc(C#N)c2)c2c1[C@H](O)C[C@@H]2F [Compound 59]", "classLabel": "label 1"}
{"compound": "NC1c2c(ccc(Oc3cc(F)cc(F)c3)c2C(F)F)S(=O)(=O)C1(F)F (centres unmarked) [Compound 129]", "classLabel": "label 1"}
{"compound": "O=C1c2c(ccc(Oc3cc(F)cc(Cl)c3)c2Br)S(=O)(=O)C12CC2 [Compound 168]", "classLabel": "label 0"}
{"compound": "N[C@@H]1c2c(ccc(Oc3cc(F)cc(F)c3)c2C(F)F)S(=O)(=O)C1(F)F [Compound 165]", "classLabel": "label 1"}
{"compound": "N#Cc1cncc(Oc2ccc(S(=N)(=O)C(F)(F)F)c3c2CC(F)(F)[C@H]3O)c1 (some centres unmarked) [Compound 79]", "classLabel": "label 1"}
{"compound": "O=S1(=O)C[C@H](O)c2c1ccc(Oc1cc(F)cc(F)c1)c2Br [Compound 177]", "classLabel": "label 1"}
